Record form. Attribute: Th-T fluorescence, mean of three wells. Fill in for each entry.
# TARGET: Aβ42 (Homo sapiens, UniProt P05067)
# Sequence (P05067 672-713): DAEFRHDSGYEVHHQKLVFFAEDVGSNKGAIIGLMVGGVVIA
# TEST SUMMARY: Th-T (thioflavin-T) assay of Aβ42 aggregation
# Assay type: biochemical
# EXPERIMENTAL PARAMETERS: reading M31; Supplementary Fig. 47 source data
Numbers only.

Please review the entries below; each comes with its answer.
INSERT INTO measurements (compound, target, quantity, measured_value) VALUES
  ('C=C1CC[C@H]2[C@]3(C)C[C@@H](C=C(C)C)O[C@H]3CC[C@]2(C)[C@@H]1Cc1c(OC)oc(CO)c(C)c1=O [Compound 17]', 'Aβ42 (Homo sapiens, UniProt P05067)', 'Th-T fluorescence, mean of three wells', 2.96),
  ('CC(C)=CCC/C(C)=C/CC/C(C)=C/CC/C(C)=C/Cc1c(O)c(C)c(C)oc1=O [Compound 2]', 'Aβ42 (Homo sapiens, UniProt P05067)', 'Th-T fluorescence, mean of three wells', 2.687),
  ('C=C1CCC2C(C)(CCC=C(C)C)C(=O)CCC2(C)C1Cc1c(O)c(C)c(C)oc1=O (stereo not shown) [Compound 8]', 'Aβ42 (Homo sapiens, UniProt P05067)', 'Th-T fluorescence, mean of three wells', 2.093);

Let us move to another entry and its Th-T fluorescence, mean of three wells.
Recorded Th-T fluorescence, mean of three wells for C=C1CC[C@H]2[C@]3(C)C[C@@H](C=C(C)C)O[C@H]3CC[C@]2(C)[C@@H]1Cc1c(O)c(C)c(C)oc1=O [Compound 5, subglutinol A] , please?
2.5151
